# protocol.notes: Toxicity in Rattus norvegicus Wistar albino (rat) assessed as mortality at 57.92 X 10^2 umol/kg, po
# Type: organism-based
# reported.conditions: in vivo, read-out: Activity
measured.metric: mortality (%)
Numbers only, in %.

Problem: Please look at this molecule and report its mortality: O=c1ccc(O)ccc1O
Result: 16
